# testTarget: human CB1R (Homo sapiens (Human), UniProt P21554)
# Sequence (P21554 whole entry): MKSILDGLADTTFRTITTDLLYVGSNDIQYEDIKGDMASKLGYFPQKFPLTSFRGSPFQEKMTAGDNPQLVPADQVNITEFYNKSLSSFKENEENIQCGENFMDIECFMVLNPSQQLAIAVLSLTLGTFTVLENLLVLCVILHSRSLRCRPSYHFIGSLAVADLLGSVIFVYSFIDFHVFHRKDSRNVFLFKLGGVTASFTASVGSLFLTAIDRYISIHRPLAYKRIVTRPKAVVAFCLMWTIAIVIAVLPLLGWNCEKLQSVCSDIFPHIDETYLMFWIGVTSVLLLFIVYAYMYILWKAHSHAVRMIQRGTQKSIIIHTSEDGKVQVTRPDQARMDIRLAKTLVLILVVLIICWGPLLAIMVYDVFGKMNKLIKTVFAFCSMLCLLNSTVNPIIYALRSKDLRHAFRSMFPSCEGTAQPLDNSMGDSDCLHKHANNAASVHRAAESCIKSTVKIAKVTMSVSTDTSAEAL
# procedureDetails: CB1 cAMP (assay 2)
# conditions: CHO cells expressing human CB1R; inhibition of forskolin-stimulated cAMP
measurementLabel: EC50 (µM)
Provide only the numeric value, understood in µM.

molecule	measurementLabel	endpointValue
CC(C)(CO)c1cc(NC(=O)C(C)(C)S(=O)(=O)CCCC(F)(F)F)on1 [Example 7 WO2010036630]	EC50	28

Let us move to another entry and its EC50.
Which EC50 reading was recorded for the molecule CC(C)(O)c1cc(NC(=O)C(C)(C)S(=O)(=O)CCCC(F)(F)F)on1 [Example 134 in WO2010036630] ?
26
